protocolDetails: qHTS for small molecule inhibitors of Yes1 kinase: Counter Assay (AID 686950);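 also: no kinase present so only ADP-Glo detection of a fixed ADP amount is tested; luminescence from ADP-Glo reporting ADP in a fixed ATP and ADP mixture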
testParameters: series mostly up to 76.9 µM
Calls of active or inactive are those of the source. Calls follow the shape of the dose curve; as a rule, active = well fitted curve in the direction sought with a large enough effect; inactive = no such curve, though single readings can be large or run the other way.
quantityMeasured: outcome

A selection of reference data follows.
• CCn1c(-c2nonc2N)nc2ccc(F)cc21 = inactive
• COc1cc(Nc2ncc3c(C)nc(-c4cccc(C(F)(F)F)c4)n3n2)cc(OC)c1OC = inactive
• CCN1CCC(CC(=O)Nc2n[nH]c3nc(-c4cccs4)c(Br)cc23)CC1 = inactive
• Nc1nccc(C#Cc2cncnc2Nc2ccc(OCc3cccc(F)c3)c(Cl)c2)n1 = inactive

Each compound below has a reported value. Please supply its outcome.
1. NC(=O)c1sc(-n2cnc3ccc(C(F)(F)F)cc32)cc1OCc1ccccc1Br
2. FC(F)(F)CNc1nccc(-c2cnn3ncccc23)n1

Response line:
inactive
inactive

Each compound below has a reported value. Please supply its outcome.
1. O=S(=O)(CCOCc1ccc(-c2ccc3ncnc(Nc4ccc(OCc5cccc(F)c5)c(Cl)c4)c3c2)o1)c1ccccc1
2. CCn1c(-c2nonc2N)nc2c(C#CC(C)(C)O)ncc(OCC3CCNCC3)c21
3. NS(=O)(=O)c1ccc(-c2cc3ccncc3cc2OCc2ccccc2)cc1
4. CCn1c(-c2nonc2N)nc2cnc(Oc3cccc(NC(=O)c4ccc(N(C)C)cc4)c3)cc21
5. CCCN1CCC=C(c2ccc(Nc3nc(Nc4ccccc4C(N)=O)c4cc[nH]c4n3)c(C)c2)C1
6. CN1CCC(C(=O)Nc2n[nH]c3nnc(-c4ccccc4)cc23)CC1

Response line:
inactive
inactive
inactive
inactive
inactive
inactive

Each compound below has a reported value. Please supply its outcome.
1. ON=C1CCc2cc(-c3nc(C4CCNCC4)[nH]c3-c3ccncc3)ccc21
2. CN(c1ccc(NC(=O)NCCN2CCOCC2)cc1)c1ccnc(Nc2ccc(CS(C)(=O)=O)cc2)n1
3. CCn1c(-c2nonc2N)nc2c(C#CCN)ncc(OCCCN)c21

Response line:
1: inactive; 2: inactive; 3: inactive

Each compound below has a reported value. Please supply its outcome.
1. Nc1nccc(-c2c(-c3ccc(F)cc3)ncn2C2CCC(O)CC2)n1 (stereo unspecified)
2. Cc1nc(-c2ccccc2)n2nc(NCCCN3CCOCC3)ncc12

Response line:
1. inactive
2. inactive

Each compound below has a reported value. Please supply its outcome.
1. c1ccc(Nc2ncc(-c3ccccc3)o2)cc1
2. O=C1NC(=O)C(c2cccc(Cl)c2)=C1Nc1ccc(Cl)c(C(=O)O)c1
3. COc1cc2ncn(-c3cc(OCc4ccccc4Cl)c(C(N)=O)s3)c2cc1OC
4. Nc1ncnc2occ(-c3ccc(NC(=O)Nc4cc(C(F)(F)F)cc(C(F)(F)F)c4)cc3)c12

Response line:
1: inactive; 2: inactive; 3: inactive; 4: inactive
